Origin of measurements: patent US20230183237A1

molecular target: hM5 (Homo sapiens); construct: expressed in transfected cells; assay: Calcium mobilization concentration-response (IC50 vs EC80 acetylcholine), CHO hM5; format: cell-based; conditions: CELL LINE hM5; vs EC80 acetylcholine; read-out: IC50
Sequence (P08912 whole entry): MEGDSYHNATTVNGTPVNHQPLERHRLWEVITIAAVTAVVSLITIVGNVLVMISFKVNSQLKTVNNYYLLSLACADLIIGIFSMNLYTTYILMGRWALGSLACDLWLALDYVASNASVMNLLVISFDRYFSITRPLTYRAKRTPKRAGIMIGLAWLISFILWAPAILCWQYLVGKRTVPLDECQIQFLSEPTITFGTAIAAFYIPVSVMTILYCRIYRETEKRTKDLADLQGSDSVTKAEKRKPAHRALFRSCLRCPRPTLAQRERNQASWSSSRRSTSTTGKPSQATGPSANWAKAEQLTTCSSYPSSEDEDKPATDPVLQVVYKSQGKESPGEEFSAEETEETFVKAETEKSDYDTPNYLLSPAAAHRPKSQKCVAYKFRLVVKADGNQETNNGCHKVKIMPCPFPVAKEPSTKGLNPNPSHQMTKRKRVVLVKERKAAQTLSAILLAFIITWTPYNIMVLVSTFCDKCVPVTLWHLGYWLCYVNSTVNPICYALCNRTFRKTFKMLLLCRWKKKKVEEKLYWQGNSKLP
Measured Quantity: pIC50
Lab note — pIC50 values are minus log10 of concentrations in M.

What does the record list as pIC50 for CCc1cc2ncnn2cc1C1CCN(S(=O)(=O)c2cnc3sccn23)CC1 ? 6.94

What does the record list as pIC50 for Cc1cc2ncnn2cc1C1(F)CCN(S(=O)(=O)c2cnn3cccnc23)CC1 ? 6.12

What does the record list as pIC50 for Cc1cc2ncnn2cc1C1CCN(S(=O)(=O)c2cnn(C)c2CNC(=O)c2ccccn2)CC1 ? 6.13

What does the record list as pIC50 for Cc1cnc2ccccc2c1C1=CCN(S(=O)(=O)c2cnn(C)c2Cl)CC1 ? 7.49

What does the record list as pIC50 for [2H]C1([2H])CC(c2cn3ncnc3cc2C(F)F)CC([2H])([2H])N1S(=O)(=O)c1cn(C)nn1 ? 6.11
